assay_text: Quantitative highthroughput screen to assess conditional lethalithy of P12 Ichikawa cells grown in Human Plasma-Like Medium with dialyzed fetal bovine serum (HPLM+ds) (AID 1963879); further: nearly all actives have a fitted effect of over 35% in size
recorded_conditions: ATP luminescence, 48 h; viability; series mostly up to 45.8 µM
Inconclusive results are not listed. Calls of active or inactive are those of the source. The call rests on the fitted dose curve; in most records, active means well fitted cell-killing curve with a large enough effect; inconclusive means small, poorly fitted or top-dose-only effect; inactive means flat fitted curve, though single readings scatter.
I would appreciate it if you answered using one of these outcomes: active, inactive

Request: // outcome(item) with item = COc1ccc(S(=O)(=O)Nc2cccnc2Nc2ccc(O)cc2)cc1
Response: active

Request: // outcome(item) with item = CC[C@@H]([C@H](C)O)n1ncn(-c2ccc(N3CCN(c4ccc(OCC5CO[C@@](Cn6cncn6)(c6ccc(F)cc6F)C5)cc4)CC3)cc2)c1=O (stereo partly specified)
Response: inactive

Request: // outcome(item) with item = CN(C)CC(C)(C)CNc1nn2c(-c3ccccc3)nnc2cc1C1CCC1
Response: active

Request: // outcome(item) with item = COCCCOc1cc(C[C@@H](C[C@H](N)[C@@H](O)C[C@H](C(=O)NCC(C)(C)C(N)=O)C(C)C)C(C)C)ccc1OC
Response: inactive

Request: // outcome(item) with item = Cc1c(C(=O)Nc2ccc(N3C[C@@H](C)O[C@@H](C)C3)nc2)cccc1-c1ccc(OC(F)(F)F)cc1
Response: active

Request: // outcome(item) with item = O=S(=O)(NCCNCC=Cc1ccc(Br)cc1)c1cccc2cnccc12
Response: inactive
